- target-desc: Follistatin-related protein 3 (Homo sapiens) (UniProt O95633)
- Sequence (O95633 whole entry, looked up): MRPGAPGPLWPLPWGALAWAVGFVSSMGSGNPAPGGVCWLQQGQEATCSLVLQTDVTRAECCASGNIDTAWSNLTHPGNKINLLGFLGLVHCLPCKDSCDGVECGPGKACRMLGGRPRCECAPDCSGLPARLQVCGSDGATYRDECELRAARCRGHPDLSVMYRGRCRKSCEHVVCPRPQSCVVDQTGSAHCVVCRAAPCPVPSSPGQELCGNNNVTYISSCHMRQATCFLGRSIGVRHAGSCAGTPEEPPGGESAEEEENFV
- experiment-description: FSTL3 binders on small-molecule microarrays, primary screen, biochemical, small-molecule microarray, 635 nm fluorescence (AID 1105);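 further: score merges emission near 667 nm and signal to noise per printed spot across three slides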
- cond: FSTL3 binding, higher = more signal
Please map values of composite z-score to classes as shown: group 1 (below -0.2), group 2 (-0.2 to below 0.5), group 3 (0.5 or more)

Given `COc1ccc(O[C@H]2C=C[C@@H](c3ccccc3)O[C@@H]2COC(=O)N2CCCCC2)cc1` , name the class its composite z-score places it in.
group 2

Given `C=C(/C(=C/C[C@H](OC(=O)c1ccncc1)c1ccc(OCCO)cc1)c1cnc2ccccc2c1)C(C)C` , name the class its composite z-score places it in.
group 3

Given `C[C@@H]1CC[C@H]2C(=O)O[C@H](COc3ccc(C(C)(C)C)cc3)CN2[C@H]1c1ccc(Br)cc1` , name the class its composite z-score places it in.
group 2

Given `CC(CCN1CCc2nc(-c3ccccc3)c(-c3ccccc3)cc2C1)=NOC[C@@H](C)[C@H](OCc1ccccc1)C(C)C` , name the class its composite z-score places it in.
group 1

Given `C=C(/C(=C/C[C@H](OC(C)=O)c1ccc(OCCO)cc1)c1cnc2ccccc2c1)C(C)C` , name the class its composite z-score places it in.
group 3

Given `COC(=O)CC=C[C@@H](C)[C@@H](C=NO[C@@H](C)c1cc(-c2c(C)cc(C)cc2C)no1)OC` , name the class its composite z-score places it in.
group 1

Given `CC(CCC(=O)OC[C@H]1O[C@H](C#Cc2ccccc2)C=C[C@@H]1Oc1ccc(C)cc1)=NOC[C@@H](O)COCc1ccco1` , name the class its composite z-score places it in.
group 1

Given `CO[C@@H]1COC(=O)CC=C[C@@H](C)[C@@H]2C=C[C@H](O)[C@@H](COC(=O)CCC[C@H]1C)O2` , name the class its composite z-score places it in.
group 3

Given O[C@@H](Cc1ccccc1)[C@H]1C2C=CCCC(c3ccccc3)=C2CN1Cc1cccc(Cl)c1 (stereo partly drawn) , name the class its composite z-score places it in.
group 3

Given `COc1ccc(O[C@H]2C=C[C@@H](c3ccccc3)O[C@@H]2COC(=O)CCC(C)=NOC[C@@H](C)[C@H](OCc2ccccc2)C(C)C)cc1` , name the class its composite z-score places it in.
group 1

Given c1ccc(C2NCCc3c2[nH]c2ccccc32)cc1 (stereo not drawn) , name the class its composite z-score places it in.
group 2

Given `CC(=O)OC[C@H]1O[C@H](CCON=C[C@@H](C)[C@H](OCc2ccccc2)C(C)C)C=C[C@@H]1OC(C)=O` , name the class its composite z-score places it in.
group 2

Given `COc1ccc(O[C@@H]2[C@H](O)CO[C@H]2C=CC#Cc2ccccc2)cc1` , name the class its composite z-score places it in.
group 2

Given `COC(=O)[C@@]1(Cc2ccc(F)cc2)[C@H]2c3cc(C(=O)N(C)C)n(Cc4ccc(OC)c(OC)c4)c3C[C@H]2CN1C(=O)c1ccccc1` , name the class its composite z-score places it in.
group 1

Given `COC(=O)c1c(CC[C@@H](CO)NC(=O)N[C@H](Cc2ccccc2)Cn2cc(-c3ccccc3N)nn2)oc(C(C)=O)c1C(=O)OC` , name the class its composite z-score places it in.
group 2

Given `C=C(CCCC)C(=O)CC[C@@H](OC(C)=O)c1cccc(OCCO)c1` , name the class its composite z-score places it in.
group 2

Given `COCCOC(=O)N1C(=O)[C@@]2(c3cc(C#Cc4ccc(OC)cc4)ccc31)[C@H](c1ccc(O)cc1)N1[C@H](c3ccccc3)[C@H](c3ccccc3)OC(=O)[C@H]1[C@@H]2C(N)=O` , name the class its composite z-score places it in.
group 3
